- System: human liver microsomes
Starred links: 1 amine or outer side, 2 acyl side, 3 side chain; linkers in the order of their positions; H or OH if unused. Non-standard residues stand in square brackets, D forms with d. Residues, ends and D or L forms follow the SMILES beside them. X1 = CC(C)C[C@H](NC(=S)[C@H](Cc1ccc(O)cc1)N[*:1])C(=O)[*:2]; X6 = O=C([C@H](Cc1ccc(O)cc1)NC(=S)[C@H]1CCCN1[*:1])[*:2]; X2 = CC(C)C[C@H](NC(=S)[C@@H](CC(C)C)N[*:1])C(=O)[*:2]; X3 = CC(C)C[C@H](N[*:1])C(=S)N[C@H](CC(C)C)C(=O)[*:2]; NMeY = CN[C@@H](Cc1ccc(O)cc1)C(=O)O; NMeL = CN[C@@H](CC(C)C)C(=O)O
Readout Label: Half lives

compound="CC(C)C[C@@H]1NC(=O)[C@H](Cc2ccc(O)cc2)NC(=S)[C@H]2CCCN2C(=O)[C@H](CC(C)C)NC(=O)[C@H](CC(C)C)NC(=O)[C@@H](CC(C)C)NC1=O [10d] (cyclo(LL[X6]L[dL]))" experimental_target="human liver microsomes" value_measured=29.5

A. CC(C)C[C@@H]1NC(=O)[C@@H](CC(C)C)NC(=O)[C@H](CC(C)C)NC(=O)[C@H](Cc2ccc(O)cc2)N(C)C(=O)[C@H]2CCCN2C(=O)[C@H](CC(C)C)NC1=O [10j] (cyclo(LL[dP][NMeY]L[dL]))
B. CC(C)C[C@@H]1NC(=O)[C@@H](CC(C)C)NC(=S)[C@H](CC(C)C)NC(=O)[C@H](Cc2ccc(O)cc2)NC(=O)[C@H]2CCCN2C(=O)[C@H](CC(C)C)NC1=O [10f] (cyclo(LL[dP]Y[X3]))
C. CC(C)C[C@@H]1NC(=O)[C@@H](CC(C)C)NC(=O)[C@H](CC(C)C)N(C)C(=O)[C@H](Cc2ccc(O)cc2)NC(=O)[C@H]2CCCN2C(=O)[C@H](CC(C)C)NC1=O [10k] (cyclo(LL[dP]Y[NMeL][dL]))
D. CC(C)C[C@@H]1NC(=O)[C@H](Cc2ccc(O)cc2)NC(=O)[C@H]2CCCN2C(=O)[C@H](CC(C)C)NC(=O)[C@H](CC(C)C)NC(=O)[C@@H](CC(C)C)NC1=O [compound 10, cyclo(-D-Leu^1-Leu-Leu-D-Pro-Tyr-Leu^6-)] (cyclo(LL[dP]YL[dL]))
Reorder: Half lives, max to min. Please list the labels in the order you were asked to rank them. B, A, C, D
(B: 42.3, A: 28.7, C: 10.3, D: 6.7)

P. CC(C)C[C@@H]1NC(=O)[C@@H](CC(C)C)NC(=O)[C@H](CC(C)C)NC(=S)[C@H](Cc2ccc(O)cc2)NC(=O)[C@H]2CCCN2C(=O)[C@H](CC(C)C)NC1=O [10e] (cyclo(LL[dP][X1][dL]))
Q. CC(C)C[C@@H]1NC(=O)[C@H](Cc2ccc(O)cc2)NC(=O)[C@H]2CCCN2C(=O)[C@H](CC(C)C)NC(=O)[C@H](CC(C)C)NC(=S)[C@@H](CC(C)C)NC1=O [10a] (cyclo(L[dP]YL[X2]))
Which entry shows the lesser value of Half lives here, P or Q ? In your reply, give the label of the chosen option. P

# credit: paper PMC10539501
